Recorded values, source paper PMC6017830.

A collection of molecules and their measured minimal effective concentration
# Test system: HIF-HRE transcriptional activity in SKN:HRE-MLuc cells (reflects FIH-1 inhibition)
# protocol-text: HIF activity under hypoxia, HRE-MLuc luciferase reporter assay
# Assay type: cell-based, human
# experimental-parameters: Homo sapiens; SKN:HRE-MLuc cells, 3% O2, 24 h; doses 100, 25, 6.3, 1.6 μM; DMOG 100 μM as positive control; read-out: 25% Activity (lower dose limit showing 25% of the RLU intensity of the positive control DMOG)
recorded-metric: minimal effective concentration

>>> result("Cc1ccc(C(=O)NCC(=O)O)s1 [Compound 11, (5-Methylthiophene-2-carbonyl)glycine]")
"25 µM"
>>> result("COC(=O)[C@H](Cc1ccc(O)cc1)NC(=O)c1cc(-c2ccccc2)cs1 [Compound 30]")
"6.3 µM"
>>> result("CCOC(=O)[C@H](Cc1ccccc1)NC(=O)c1ccc(C)s1 [Compound 15]")
"25 µM"
>>> result("CCOC(=O)[C@H](Cc1c[nH]c2ccccc12)NC(=O)c1ccc(C)s1 [Compound 17]")
"100 µM"
>>> result("COC(=O)[C@@H](Cc1c[nH]c2ccccc12)NC(=O)c1ccc(C)o1 [Compound 10]")
"6.3 µM"
>>> result("CCOC(=O)[C@@H](Cc1c[nH]c2ccccc12)NC(=O)c1ccc(C)s1 [Compound 18]")
"100 µM"
>>> result("Cc1ccc(C(=O)N[C@H](Cc2c[nH]c3ccccc23)C(=O)O)s1 [Compound 16]")
"100 µM"
>>> result("COC(=O)[C@H](Cc1c[nH]c2ccccc12)NC(=O)c1ccc(C)o1 [Compound 9]")
"25 µM"
